Target: Delta-type opioid receptor (Rattus norvegicus)
Assay: Percent stimulation of [35S]GTP-gamma-S, binding at 10 uM
Format: functional

Given Smiles: CCCCCN1C[C@H](C)N([C@H](c2ccc(C(=O)N(CC)CC)cc2)c2cccc(OC)c2)C[C@H]1C
Readout Unit: %
Stimulation: 26
--
Given Smiles: CCCCCCN1C[C@H](C)N([C@H](c2ccc(C(=O)N(CC)CC)cc2)c2cccc(OC)c2)C[C@H]1C
Readout Unit: %
Stimulation: 21
--
Given Smiles: C/C=C/CN1C[C@H](C)N([C@H](c2ccc(C(=O)N(CC)CC)cc2)c2cccc(OC)c2)C[C@H]1C
Readout Unit: %
Stimulation: 130
--
Given Smiles: CCCCN1C[C@H](C)N([C@H](c2ccc(C(=O)N(CC)CC)cc2)c2cccc(OC)c2)C[C@H]1C
Readout Unit: %
Stimulation: 66
--
Given Smiles: CCN(CC)C(=O)c1ccc([C@H](c2cccc(OC)c2)N2C[C@@H](C)N(CC)C[C@@H]2C)cc1
Readout Unit: %
Stimulation: 45
--
Given Smiles: CCN(CC)C(=O)c1ccc([C@H](c2cccc(OC)c2)N2C[C@@H](C)N(CCCc3ccccc3)C[C@@H]2C)cc1
Readout Unit: %
Stimulation: 18
--
Given Smiles: CCN(CC)C(=O)c1ccc([C@H](c2cccc(OC)c2)N2C[C@@H](C)N(CC3CC3)C[C@@H]2C)cc1
Readout Unit: %
Stimulation: 48
--
Given Smiles: CCN(CC)C(=O)c1ccc([C@H](c2cccc(OC)c2)N2C[C@@H](C)N(CCc3ccccc3)C[C@@H]2C)cc1
Readout Unit: %
Stimulation: 10

###

Biological target: Delta-type opioid receptor (Rattus norvegicus)
Assay: Percent stimulation of [35S]GTP-gamma-S, binding at 10 uM
Assay type: functional
// Stimulation lookup, one value per entry

Given Smiles: CCN(CC)C(=O)c1ccc([C@H](c2cccc(OC)c2)N2C[C@@H](C)NC[C@@H]2C)cc1
Stimulation: 63%

Given Smiles: CCN(CC)C(=O)c1ccc([C@H](c2cccc(OC)c2)N2C[C@@H](C)N(C)C[C@@H]2C)cc1
Stimulation: 25%

Given Smiles: CCN(CC)C(=O)c1ccc([C@H](c2cccc(OC)c2)N2C[C@@H](C)N(Cc3ccccc3)C[C@@H]2C)cc1
Stimulation: 144%

Given Smiles: C=C(C)CN1C[C@H](C)N([C@H](c2ccc(C(=O)N(CC)CC)cc2)c2cccc(OC)c2)C[C@H]1C
Stimulation: 119%
